STUDY TARGET: T1, human PD-L1 on cells (human, UniProt Q9NZQ7 19-290)
T1 construct: whole, on cells; Same protein on three cell lines; also called hPD-L1; the antigen
T1 sequence (Q9NZQ7 19-290): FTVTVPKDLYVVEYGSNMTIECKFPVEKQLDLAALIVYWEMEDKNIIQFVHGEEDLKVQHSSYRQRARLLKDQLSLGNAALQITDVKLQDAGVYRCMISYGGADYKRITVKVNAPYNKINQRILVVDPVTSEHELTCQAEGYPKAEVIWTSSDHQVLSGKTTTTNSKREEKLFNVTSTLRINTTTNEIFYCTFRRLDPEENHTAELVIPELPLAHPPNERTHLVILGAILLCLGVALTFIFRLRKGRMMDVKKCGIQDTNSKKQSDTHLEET
ASSAY PROCEDURE: competitive flow cytometry on 293T-PD-L1 cells, blocking of human-CD80-mFc binding
QUANTITY: IC50 (nM)

A. antibody 1 (VHH, expressed in mammalian cells) VHH: QVQLVESGGGLVQAGGSLRLSCAASGRSFSSSGMGWFRQAPGKDREFVATINSSGGDTYYRDSVEGRFTTSRDNAKNTMSLQMNDLKPEDTAVYYCAAKEGGGPSSIPAIYDYWGQGTQVTVSS
B. antibody 2 (VHH) VHH: QVQLVESGGGLVQPGGSLSLSCVASGFTFSSYAMRWVRQAPGKEPEWVAGINTGSEIVVYANSVRGRFAISRDNARDTLFLQMNSLKPEDTAVYYCATGLVSAEHDGIWGQGTQVTVSS
C. antibody 3 (VHH) VHH: EVQLVESGGGSVQTGGSLRLSCVASGRDFLTYGMGWFRQAPGKEREFVASINWSGSMTYYADSVKGRFTISRDNAKNTVYLQMNSLKPGDTAVYICAARRGAVTYASSNEYEHWGQGTQVTVSS
Problem: Can you order these entries from above by IC50? Start with the largest number and work down. The labels, placed in the requested order, form the answer.
Result: C, A, B
